Molecular target: ATX1 AXH (residues A567–K689 of human ATX1) (Homo sapiens)
Construct: Recombinant ATX1 AXH (residues A567–K689 of human ATX1); His6-GST (N, cleaved yes); made in house; host or cells: E. coli BL21(DE3)pLysS
Sequence (P54253 566-688 limits assumed): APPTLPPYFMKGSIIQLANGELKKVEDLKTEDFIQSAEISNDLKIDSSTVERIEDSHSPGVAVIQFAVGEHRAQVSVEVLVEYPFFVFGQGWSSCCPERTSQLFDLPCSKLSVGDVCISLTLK
Assay: ITC binding of CIC peptides to ATX1 AXH
Conditions: 25°C, 50 mM Tris-HCl pH 7, 50 mM NaCl, 2 mM TCEP, 0.041 mM AXH in cell, 0.410 mM peptide in syringe, averages of three measurements, read-out: dissociation constant (Kd)
Experimental: Binding affinities of AXH with CIC ligands were measured at 25°C by a MicroCal Omega VP-ITC (MicroCal Inc., Northampton, USA). Both protein and peptides buffers were 50 mM Tris-HCl pH 7, 50 mM NaCl, 2 mM TCEP. Solutions of 0.041 mM AXH in the cell were titrated by injections of a total of 283 µl of 0.410 mM peptide in the syringe in 21 aliquots. Data were processed with the software MicroCal Origin version 5.0 provided by the manufacturer. […]
Peptide text beside a SMILES is read from it.
experimental_readout: Kd (nM)
# unit: nM | format: bare number

# compound CC(C)C[C@H](NC(=O)[C@H](Cc1ccccc1)NC(=O)[C@H](C)NC(=O)[C@@H](NC(=O)[C@H](CC(C)C)NC(=O)[C@H](CO)NC(=O)[C@H](Cc1c[nH]cn1)NC(=O)[C@H](Cc1c[nH]c2ccccc12)NC(=O)[C@@H]1CCCN1C(=O)[C@H](Cc1ccccc1)NC(=O)[C@@H](N)C(C)C)C(C)C)C(=O)N[C@@H](C)C(=O)N1CCC[C@H]1C(=O)N[C@@H](CO)C(=O)N[C@@H](CCC(N)=O)C(=O)O [P42] (H-VFPWHSLVAFLAPSQ-OH) ; its Kd = 40

The measured Kd associated with CC(C)C[C@H](NC(=O)[C@H](CO)NC(=O)[C@H](Cc1c[nH]cn1)NC(=O)[C@H](Cc1c[nH]c2ccccc12)NC(=O)[C@@H]1CCCN1C(=O)[C@H](Cc1ccccc1)NC(=O)[C@@H](N)C(C)C)C(=O)N[C@H](C(=O)N1CCC[C@H]1C(=O)N[C@@H](Cc1ccccc1)C(=O)N[C@@H](C)C(=O)N[C@@H](C)C(=O)N1CCC[C@H]1C(=O)N[C@@H](CO)C(=O)N[C@@H](CCC(N)=O)C(=O)O)C(C)C [L44] (H-VFPWHSLVPFAAPSQ-OH) reads 50

Noted for CC(C)C[C@H](NC(=O)[C@H](Cc1ccccc1)NC(=O)[C@@H]1CCCN1C(=O)[C@@H](NC(=O)[C@H](CC(C)C)NC(=O)[C@H](CO)NC(=O)[C@H](Cc1c[nH]cn1)NC(=O)[C@H](Cc1c[nH]c2ccccc12)NC(=O)[C@@H]1CCCN1C(=O)[C@H](Cc1ccccc1)NC(=O)[C@@H](N)C(C)C)C(C)C)C(=O)N[C@@H](C)C(=O)N1CCC[C@H]1C(=O)N[C@@H](CO)C(=O)N[C@@H](CCC(N)=O)C(=O)O [L-CICp] (H-VFPWHSLVPFLAPSQ-OH) : its Kd reads 30

// Kd lookup, compound = CC(C)C[C@H](NC(=O)[C@H](Cc1ccccc1)NC(=O)[C@@H]1CCCN1C(=O)[C@@H](NC(=O)[C@H](CC(C)C)NC(=O)[C@H](CO)NC(=O)[C@H](Cc1c[nH]cn1)NC(=O)[C@H](Cc1c[nH]c2ccccc12)NC(=O)[C@@H]1CCCN1)C(C)C)C(=O)N[C@@H](C)C(=O)N1CCC[C@H]1C(=O)N[C@@H](CO)C(=O)N[C@@H](CCC(N)=O)C(=O)O [CICp] (H-PWHSLVPFLAPSQ-OH) , result: 8000

New cases:
The value of Kd measured for the compound CC(C)C[C@H](NC(=O)[C@H](C)NC(=O)[C@@H]1CCCN1C(=O)[C@@H](NC(=O)[C@H](CC(C)C)NC(=O)[C@H](CO)NC(=O)[C@H](Cc1c[nH]cn1)NC(=O)[C@H](Cc1c[nH]c2ccccc12)NC(=O)[C@@H]1CCCN1C(=O)[C@H](Cc1ccccc1)NC(=O)[C@@H](N)C(C)C)C(C)C)C(=O)N[C@@H](C)C(=O)N1CCC[C@H]1C(=O)N[C@@H](CO)C(=O)N[C@@H](CCC(N)=O)C(=O)O [F43] (H-VFPWHSLVPALAPSQ-OH) turned out to be 60

compound CC(C)C[C@H](NC(=O)[C@H](Cc1ccccc1)NC(=O)[C@@H]1CCCN1C(=O)[C@@H](NC(=O)[C@H](C)NC(=O)[C@H](CO)NC(=O)[C@H](Cc1c[nH]cn1)NC(=O)[C@H](Cc1c[nH]c2ccccc12)NC(=O)[C@@H]1CCCN1C(=O)[C@H](Cc1ccccc1)NC(=O)[C@@H](N)C(C)C)C(C)C)C(=O)N[C@@H](C)C(=O)N1CCC[C@H]1C(=O)N[C@@H](CO)C(=O)N[C@@H](CCC(N)=O)C(=O)O [L40] (H-VFPWHSAVPFLAPSQ-OH) , Kd observed: 500

CC(C)C[C@H](NC(=O)[C@H](Cc1ccccc1)NC(=O)[C@@H]1CCCN1C(=O)[C@@H](NC(=O)[C@H](CC(C)C)NC(=O)[C@H](CO)NC(=O)[C@H](Cc1c[nH]cn1)NC(=O)[C@H](C)NC(=O)[C@@H]1CCCN1C(=O)[C@H](Cc1ccccc1)NC(=O)[C@@H](N)C(C)C)C(C)C)C(=O)N[C@@H](C)C(=O)N1CCC[C@H]1C(=O)N[C@@H](CO)C(=O)N[C@@H](CCC(N)=O)C(=O)O [W37] (H-VFPAHSLVPFLAPSQ-OH) has a reported Kd of 2600

# Kd (compound: CC(C)C[C@H](NC(=O)[C@H](Cc1ccccc1)NC(=O)[C@@H]1CCCN1C(=O)[C@@H](NC(=O)[C@H](CC(C)C)NC(=O)[C@H](CO)NC(=O)[C@H](Cc1c[nH]cn1)NC(=O)[C@H](Cc1c[nH]c2ccccc12)NC(=O)[C@@H]1CCCN1C(=O)[C@H](C)NC(=O)[C@@H](N)C(C)C)C(C)C)C(=O)N[C@@H](C)C(=O)N1CCC[C@H]1C(=O)N[C@@H](CO)C(=O)N[C@@H](CCC(N)=O)C(=O)O [F35] (H-VAPWHSLVPFLAPSQ-OH) ) is 30

The reported Kd of the compound CC(C)C[C@H](NC(=O)[C@H](Cc1ccccc1)NC(=O)[C@@H]1CCCN1C(=O)[C@@H](NC(=O)[C@H](CC(C)C)NC(=O)[C@H](CO)NC(=O)[C@H](Cc1c[nH]cn1)NC(=O)[C@H](Cc1c[nH]c2ccccc12)NC(=O)[C@@H]1CCCN1C(=O)[C@H](Cc1ccccc1)NC(=O)[C@H](C)N)C(C)C)C(=O)N[C@@H](C)C(=O)N1CCC[C@H]1C(=O)N[C@@H](CO)C(=O)N[C@@H](CCC(N)=O)C(=O)O [V34] (H-AFPWHSLVPFLAPSQ-OH) was 20

Lab book: Kd of CC(C)C[C@H](NC(=O)[C@H](Cc1ccccc1)NC(=O)[C@@H]1CCCN1C(=O)[C@H](C)NC(=O)[C@H](CC(C)C)NC(=O)[C@H](CO)NC(=O)[C@H](Cc1c[nH]cn1)NC(=O)[C@H](Cc1c[nH]c2ccccc12)NC(=O)[C@@H]1CCCN1C(=O)[C@H](Cc1ccccc1)NC(=O)[C@@H](N)C(C)C)C(=O)N[C@@H](C)C(=O)N1CCC[C@H]1C(=O)N[C@@H](CO)C(=O)N[C@@H](CCC(N)=O)C(=O)O [V41] (H-VFPWHSLAPFLAPSQ-OH) noted as 70

Measured values drawn from paper PMC3796545 for this set.
